Method description: in vivo
Protocol conditions: rat, sc
Recorded ED50 at 6 h values for a group of compounds are listed next.

Past entries and their recorded results:
1. O=C1NCCN1CCN1CCN(c2cn(-c3ccc(F)cc3)c3ccc(Cl)cc23)CC1 [C, reference compound]    4.5 µmol/kg
2. O=C1NCCN1CCN1CCC(c2cn(-c3ccc(F)cc3)c3ccc(F)cc23)CC1 [Compound 16]    > 78 µmol/kg
3. O=C1OCCN1CCN1CCC(c2cn(-c3ccc(F)cc3)c3ccc(Cl)cc23)CC1 [Compound 2]    > 18 µmol/kg
4. O=C1NCCN1CCN1CCC(c2cn(-c3ccc(F)cc3)c3ccc(C(F)(F)F)cc23)CC1 [Compound 12]    38 µmol/kg
5. O=C1NCCN1CCN1CCC(c2cn(-c3ccc(F)cc3)c3ccc(Cl)cc23)CC1 [Lu 23-174]    > 98 µmol/kg

### Prompt What ED50 at 6 h value was documented for this compound, CC(C)N1CCN(CCN2CCC(c3cn(-c4ccc(F)cc4)c4ccc(Cl)cc34)CC2)C1=O [Compound 14] ?
### Response > 69 µmol/kg

### Prompt Entry under review: Cc1ccc2c(c1)c(C1CCN(CCN3CCNC3=O)CC1)cn2-c1ccc(F)cc1 [Compound 24] . Reported ED50 at 6 h?
### Response > 95 µmol/kg

###

Method description: Catalepsy test (rat, vertical wire mesh, s.c.)
Protocol conditions: in vivo, sc
Attribute: ED50 at 6 h
Please state the figure in µmol/kg; there is no need to write the unit.

Worked examples, 3 compounds total:
1. CN1CCN(CCN2CCC(c3cn(-c4ccc(F)cc4)c4ccc(Cl)cc34)CC2)C1=O [Compound 3]    31
2. O=C1CCCN1CCN1CCC(c2cn(-c3ccc(F)cc3)c3ccc(Cl)cc23)CC1 [Compound 4]    23
3. O=C1NCCN1CCN1CC=C(c2cn(-c3ccc(F)cc3)c3ccc(Cl)cc23)CC1 [B, reference compound]    2.2

Consider the additional compound presented here.
### Prompt Reported ED50 at 6 h for O=C1NCCN1CCN1CC=C(c2cn(-c3ccc(F)cc3)c3ccc(C(F)(F)F)cc23)CC1 [A, reference compound] : what is it?
### Response 0.49

Data origin, for the record: patent US5439922A
